Data provenance: patent US7652047B2

tested.target: MEK1^CA (human GST-MEK1, constitutively active, Ser218Asp and Ser222Asp) (Homo sapiens, UniProt Q02750, S218D/S222D)
Construct: GST; made in house; host or cells: Escherichia coli
Sequence (Q02750 whole entry S218D/S222D): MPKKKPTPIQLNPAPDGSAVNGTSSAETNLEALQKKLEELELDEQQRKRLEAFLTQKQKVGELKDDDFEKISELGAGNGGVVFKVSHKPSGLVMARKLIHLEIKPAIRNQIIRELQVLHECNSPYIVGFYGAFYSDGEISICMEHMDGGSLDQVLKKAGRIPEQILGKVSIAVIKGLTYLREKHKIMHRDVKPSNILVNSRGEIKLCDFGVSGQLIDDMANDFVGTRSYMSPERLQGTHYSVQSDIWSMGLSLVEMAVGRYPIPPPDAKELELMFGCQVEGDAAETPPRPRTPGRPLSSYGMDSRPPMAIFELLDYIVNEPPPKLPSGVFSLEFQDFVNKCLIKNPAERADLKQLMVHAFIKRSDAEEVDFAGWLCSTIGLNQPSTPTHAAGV
test.summary: MEK1 enzymatic activity assay (MEK1^CA / ERK2 / MBP, [γ-33P]ATP incorporation)
Assay type: biochemical
run.parameters: Table 1, compounds of formula I; read-out: Avg IC50
The compounds listed here are annotated with their IC50.

Prompt: IC50 for `N=C(NCCN1CCOCC1)c1c(O)nsc1Nc1ccc(Oc2ccc(Cl)cc2Cl)cc1` ?
Completion: 1 to 100 nM

Prompt: Entry under review: `CN(C)CCNC(=N)c1c(O)nsc1Nc1ccc(Oc2ccccc2)cc1` . Reported IC50?
Completion: 100 to 500 nM

Prompt: Looking for the measured IC50 of `N=C(c1c(O)nsc1Nc1ccc(Oc2cc(F)cc(F)c2)cc1)N1CCCCC1` , can you help?
Completion: > 500 nM
